# TEST PROTOCOL: qHTS for differential inhibitors of proliferation of Plasmodium falciparum line D10 (AID 1877);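 note: parasites grown with compound for 72 h before DNA staining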; note: potency is the fitted concentration of half-maximal effect
# COND: series mostly up to 28.7 µM
Records with an inconclusive call do not appear. Calls of active or inactive are those of the source. Calls come from the whole dose curve; as a rule, active = well fitted curve in the direction sought with a large enough effect; inconclusive = small, poorly fitted or top-dose-only effect, or another doubt; inactive = no such curve, though single readings can be large or run the other way.
RECORDED METRIC: Potency

>  <COMPOUND>
Cc1cccc(C)c1NC1=NCCCS1

>  <Potency>
inactive

$$$$
>  <COMPOUND>
c1ccc(C2CC2)c(OCC2=NCCN2)c1

>  <Potency>
inactive

$$$$
>  <COMPOUND>
NCC(O)c1ccc(O)cc1 (stereo not drawn)

>  <Potency>
inactive

$$$$
>  <COMPOUND>
CCCC(C)(COC(N)=O)COC(=O)NC(C)C (stereo not drawn)

>  <Potency>
inactive

$$$$

Prompt: What Potency value was documented for this compound, O=c1[nH]c2ccccc2n1CCCN1CCC(n2c(=O)[nH]c3cc(Cl)ccc32)CC1 ?
Completion: 14.1 µM (active)

Prompt: What Potency value was documented for this compound, Clc1cccc(N2CCNCC2)c1 ?
Completion: inactive

Prompt: What Potency value was documented for this compound, NCC(CC(=O)O)c1ccc(Cl)cc1 (stereo not drawn) ?
Completion: inactive

Prompt: What Potency value was documented for this compound, NCC1(CC(=O)O)CCCCC1 ?
Completion: inactive

Prompt: What Potency value was documented for this compound, Nc1ccncc1 ?
Completion: inactive

Prompt: What Potency value was documented for this compound, Fc1ccc(C(OCCN2CCN(CCCc3ccccc3)CC2)c2ccc(F)cc2)cc1 ?
Completion: 12.6 µM (active)

Prompt: What Potency value was documented for this compound, CC(=O)[C@H]1CC[C@H]2[C@@H]3CC[C@H]4C[C@H](O)CC[C@]4(C)[C@H]3C(=O)C[C@]12C ?
Completion: inactive

Prompt: What Potency value was documented for this compound, CN(C)CCC=C1c2ccccc2CCc2ccccc21 ?
Completion: 8.91 µM (active)

Prompt: What Potency value was documented for this compound, O=c1[nH]c2ccccc2n1C1CCN(CCCC(c2ccc(F)cc2)c2ccc(F)cc2)CC1 ?
Completion: 7.08 µM (active)
